Taken from paper PMC7589491.

- Method description: Franz–PAMPA permeation study (lipid-impregnated artificial membrane on Franz cells)
- Experimental conditions: PAMPA, pH 7.4, Papp Non-Sink Arthurson, Franz–PAMPA data, non-sink equation
Decide using Papp at 12 h, 10 mg/mL alone. Strictly below 30 ×10⁻⁶ cm/s: 1.0. Equal to or above 30 ×10⁻⁶ cm/s: 0.0.

Some solved entries appear below for comparison.
Compound	Class label
CNC(=C[N+](=O)[O-])NCCSCc1ccc(CN(C)C)o1	1.0
Cn1c(=O)c2c(ncn2C)n(C)c1=O	0.0
COCCc1ccc(OCC(O)CNC(C)C)cc1 (stereo not drawn)	0.0

Consider the additional compound presented here.
Query: Dear colleague, could you confirm whether Papp at 12 h, 10 mg/mL of CN/C(=N/CCSCc1nc[nH]c1C)NC#N falls below 30 ×10⁻⁶ cm/s? Thanks.
Response: 0.0
